# Tested on: Plasmodium berghei
# experiment.description: Screen against P. berghei liver stage (PbLuc), transformed with Luciferase, at 10uM
# Format: functional, HepG2
# condition.summary: tested at 10 uM
The whole screen tested about 69,000 compounds, of which about 8,600 (12%) showed an effect of 50% or more. The full list was thinned out, with strong results kept by preference.
Friendly reminder: INHIBITION below 30% is Condition met, at or above is Condition not met.

COc1ccc(C(CNC(=O)Nc2cc(C)nn2C)N(C)C)cc1 (stereo unspecified) = Condition met
CN(CC(C)(CO)CO)C(=O)Nc1cc(Cl)cc(Cl)c1 = Condition met
COc1cn(CC(=O)N2CCN(c3ccc(Cl)cc3)CC2)c(C)cc1=O = Condition met
Cc1ccc(C(=O)NC2CCCN(S(C)(=O)=O)C2)c(=O)[nH]1 (stereo unspecified) = Condition met
CC(=O)N1CCc2ccc(S(=O)(=O)N3CCCCC3C)cc21 (stereo unspecified) = Condition met

Please look at the following compound next.
Just wondering, is INHIBITION of COCC(=O)N1CCCC1c1cc(N2CCN(C(C)=O)CC2)cc(C)n1 (stereo unspecified) below 30%?
Condition met

Entry source: ChEMBL document CHEMBL4513216
